Assignment: determine reported composite z-score for the given compounds.
Test: probe aDKK1 binding to arrayed compounds – biochemical, biotinylated probe, 635/667 nm fluorescence, primary screen (AID 1099);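 also: score merges 667nm spot fluorescence with signal to noise across triplicate slides; reference of the scale not given here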
Conditions: small-molecule microarray, higher = more signal

C=CCC(OC(C)=O)[C@@H]1[C@@H](N(Cc2cccc3ccccc23)C(=O)c2ccc(C)cc2)c2cc(OCCCO)ccc2N1C(=O)c1ccc2ccccc2c1 (some centres undefined): -0.259
C=CCOC(=O)[C@@H]1[C@H]2C(=O)O[C@H](c3ccccc3)[C@H](c3ccccc3)N2[C@H](c2ccc(OCCOC(=O)[C@H]3C[C@H]4C(=O)N[C@@H](Cc5ccccc5)C(=O)N4[C@H]3c3cccc(OCCO)c3)cc2)[C@@]12C(=O)Nc1ccc(I)cc12: 0.141
C[N+](C)(C)CCCCCCNC(=O)[C@H]1C[C@H]2C(=O)N3CCC[C@H]3C(=O)N2[C@H]1c1cccc(OCCO)c1: 0.273

Attention now turns to another entry.
Complete the entry with composite z-score for CC(C)CNC(=O)[C@@]1(c2ccc([N+](=O)[O-])cc2)CC(=O)N(C(C)C)[C@@H]1c1ccc(CO)cc1 -0.258

----------
Assay: small molecules captured by biotinylated probe aFSTL3 – biochemical, small-molecule microarray, fluorescence 635/667, stem cell growth factor project, primary screen (AID 1064);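 also: measures binding of the biotinylated anti-FSTL3 antibody to printed compounds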
Settings: higher = more signal
Mark not met for composite z-score values under 0.08, and met for everything at or above.

Worked examples follow.
COc1ccc([Si](C)(C)[C@@H]2[C@@H](CCO)O[C@]3(C(=O)N(Cc4ccc(N5C(=O)c6ccccc6Oc6ccccc65)cc4)c4ccccc43)[C@H]2C)cc1: met
COc1cc2c(cc1OC)CN(C(=O)[C@@H]1[C@H]3C(=O)O[C@H](c4ccccc4)[C@H](c4ccccc4)N3[C@H](c3ccc(OCCO)cc3)[C@@]13C(=O)Nc1ccc(C#CCCO)cc13)CC2: not met

Is composite z-score at least 0.08? Consider O=C1OCCC=C[C@H]2OC34C=CCN(Cn5nnc6ccccc65)C(=O)[C@H]3N(CCCCCO)C(=O)[C@@H]4C12 (stereo not given in full) met

Determine whether this molecule has composite z-score no lower than 0.08: [N-]=[N+]=NCc1ccccc1C[C@]1(C(=O)NCCN2CCOCC2)COC(c2ccc(OCCCO)cc2)=N1 met

Does composite z-score meet or surpass 0.08 for CCCC=C(CCC)[C@@H](NS(=O)(=O)CC)c1ccccc1 ? not met

Is composite z-score at least 0.08? Consider C=C(/C(=C/C[C@@H](OC(C)=O)c1ccccc1OCCO)c1cnc2ccccc2c1)C(C)C not met

Quick check, composite z-score >= 0.08? CC1CC/C=C\[C@H]2OC34C=CCN(c5ccc(Cl)cc5)C(=O)[C@H]3N(C(CO)C(C)C)C(=O)[C@]4(C)C2C(=O)O1 (stereo not given in full) not met

----------
Test: blood-stage malaria parasite viability loss – strain 3D7, DAPI fluorescence, 100 nL, primary screen (AID 1184);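 also: parasites grown inside human red blood cells in medium with human serum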
Conditions: P. falciparum 3D7 growth, 3 d, higher = more signal
Entry flag: true (1) if z-score reaches -1; false (0) if it does not.

Please review the following examples before continuing.
COCCCNC(=O)[C@@]1(Cc2ccccc2I)c2ccccc2C(=O)N(Cc2ccccc2Cl)[C@H]1c1ccc(CO)cc1: false (0)
COC(=O)[C@@]1(Cc2ccc(OC)cc2)[C@H]2c3cc(C(=O)N4CCCC4)n(CCc4ccc(O)c(OC)c4)c3C[C@H]2CN1C(=O)c1ccccc1: true (1)

Please find the next compound below.
Can O=C1NC(=O)C2C1C=CC(C(O)c1ccc3c(c1)OCO3)N2Nc1ccc(Cl)cc1Cl (stereo not given) be said to have z-score at or above -1? true (1)

----------
Assay: hepatitis C replication reporter changes, two-sided – Huh7 cells, luciferase reporter, HCV replication inhibitor project, primary screen (AID 1109);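 also: huh7 hepatoma cells harbouring a luciferase neomycin HCV replicon reporter; luciferase luminescence as measure of HCV replicon replication; test concentration not given here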
Conditions: Huh7 HCV replicon luciferase reporter, 48 h; higher = more signal
Give YES when the value for z-score is at least -3. Give NO when it is less.

Example entries and their recorded answers appear below.
COCCCNC(=O)[C@@]1(C)c2ccccc2C(=O)N(c2ccc(C)cn2)[C@H]1c1ccc(CO)cc1: YES
CCCCCCCCCCC(O)C1C=CC2C(=O)NC(=O)C2N1Nc1ccccn1 (configuration not stated): YES

Kindly consider the entry below.
Dear colleague, could you confirm whether O=C1NC(=O)C2C1C=CC(C(O)CCc1ccccc1)N2Nc1ccccn1 (configuration not stated) has z-score at or above -3? YES

----------
Experiment: plasmodial surface anion channel blockers, osmotic lysis – cell-based, P. falciparum Indochina, OD700, 1 h, primary screen (AID 1154)
Settings: P. falciparum Indochina infected RBC osmotic lysis, called active from +8 up or from −8 down
Calls of active or inactive are those of the source.
Tick one outcome: true (active), false (inactive)

CCCC=C(CCC)[C@@H](NS(=O)(=O)CC)c1ccccc1: false

Please indicate how the test categorized CCOC(=O)C1=CC[C@@H](c2ccc(N(CC)CC)cc2)N(S(=O)(=O)c2ccc(C)cc2)[C@H]1c1ccc([N+](=O)[O-])cc1 . false

Just curious, what result did CCCC=C(CCC)[C@@H](NS(=O)(=O)c1cccc2cccnc12)c1ccc(C(=O)OC)cc1 get here? false

I'd appreciate the recorded outcome for [N-]=[N+]=NCc1ccccc1[C@H]1OC(c2ccc(OCCCO)cc2)=N[C@@]1(Cc1ccccc1)C(N)=O from this test. true

Please share the test call associated with CCCCC(O)C1C=CC2C(=O)N(Cc3ccccc3)C(=O)C2N1n1cnnc1 (stereo not given) . false

I would be grateful if you could indicate the recorded call for COc1ccc(C#Cc2ccc3c(c2)[C@]2(C(=O)N3)[C@H](C(N)=O)[C@H]3C(=O)O[C@H](c4ccccc4)[C@H](c4ccccc4)N3[C@@H]2c2ccc(O)cc2)cc1 . false

// return assay outcome for CN(C)CCCC[C@@H]1NC(=O)[C@H]2C[C@@H](C(=O)NCCCCCCNC(=O)CS)[C@@H](c3ccc(O)cc3)N2C1=O false

----------
Test system: Human papillomavirus type 1a protein E7 (residues 44-93)
Experiment: small molecules binding HPV E7 44-93 – biochemical, small-molecule microarray, residues 44-93, 635 nm fluorescence, primary screen (AID 1108);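 also: E7 fragment applied at 1 µg/mL in TBST for 1 h at 4 C; score combines spot fluorescence with its signal to noise ratio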
Conditions: fluorescence 635 nm, higher = more signal
I'd appreciate it if you could supply composite z-score values for the items below.
One number for each entry.

Take a look at these entries with their results.
C=CCOC(=O)[C@@H]1[C@H]2C(=O)O[C@H](c3ccccc3)[C@H](c3ccccc3)N2[C@H](c2ccc(OCCOC(=O)[C@H]3C[C@H]4C(=O)N[C@@H](Cc5ccccc5)C(=O)N4[C@H]3c3cccc(OCCO)c3)cc2)[C@@]12C(=O)Nc1ccc(I)cc12: 0.88
CC(C)C[C@@H]1NC(=O)[C@@]23C(=O)N[C@@H](Cc4ccccc4)C2[C@H](C)[C@@]2(C)O[C@H]2C3/C=C/C/C=C\CNC(=O)[C@@H]2CCCN2C1=O (stereo partly drawn): -0.282
Cc1ccc(N2C(=O)c3ccccc3[C@](C)(C(=O)NC(C)C)[C@@H]2c2ccc(CO)cc2)nc1: -1.24
CC1(C)[C@@H]2CC(C(O)C3C=CC4C(=O)N(c5ccccc5)C(=O)C4N3Nc3ccccc3F)=C[C@@H]1C2 (stereo partly drawn): 1.4

Return reported composite z-score values for all items listed beneath this line.
1. CN(C)C(=O)[C@]1(Cc2ccccc2N=[N+]=[N-])N=C(c2ccc(OCCCO)cc2)O[C@@H]1c1ccccc1CN=[N+]=[N-]
2. O=C1C2C=CC(C(O)c3cccc4ccccc34)N(Nc3ccccc3)C2C(=O)N1c1ccccc1 (stereo not drawn)
3. COC(=O)[C@@]1(Cc2ccc(OC)cc2)[C@H]2c3cc(C(=O)N(C)C)n(Cc4cc(F)c(F)c(F)c4)c3C[C@H]2CN1C(=O)c1ccccc1

1. 1.42
2. 1.38
3. 1.43

Lab note: each molecule below needs its composite z-score filled in.
1. CC(C)CCC[C@@H](C)[C@H]1CC[C@@]2(C)C3=C(CC[C@]12C)[C@@]1(C)CC[C@H](OC(=O)C(C)(C)C)C(C)(C)C1CC3 (stereo partly drawn)
2. CC(C)c1ccc(NN2C(C(O)c3cccs3)C=CC3C(=O)N(c4ccccc4)C(=O)C32)cc1 (stereo not drawn)
3. COC(=O)C(CC#Cc1ccc2c(c1)[C@]1(C(=O)N2)[C@H](C(=O)N2CCc3cc(OC)c(OC)cc3C2)[C@H]2C(=O)O[C@H](c3ccccc3)[C@H](c3ccccc3)N2[C@@H]1c1ccc(O)cc1)C(=O)OC

0.506
1.4
1.27

// each molecule listed below needs its composite z-score
1. C=CC[C@@]1(C(=O)NCC(O)CO)N=C(c2ccc(OCCCO)cc2)O[C@@H]1c1ccccc1 (stereo partly drawn)
2. COCCOC(=O)N1C(=O)[C@@]2(c3cc(C#Cc4ccc(OC)cc4)ccc31)[C@H](C(N)=O)[C@H]1C(=O)O[C@H](c3ccccc3)[C@H](c3ccccc3)N1[C@@H]2c1ccc(OCCO)cc1
3. COCCCNC(=O)[C@]1(CCS(=O)(=O)c2ccccc2)N=C(c2ccc(OCCCO)cc2)O[C@@H]1c1ccccc1

[1.21, 1.42, 1.11]
